# Test system: Phospho-Rb (Ser807/811) in OVCAR3 cells
# method-description: Phospho-Rb expression inhibition in OVCAR3 cells quantified by In Cell Western
# Format: cell-based
# details: Homo sapiens, OVCAR-3, 24 hours, read-out: OVCAR-3 pRb IC50
pIC50: −log10 of the molar value.
quantity: pIC50

                                   compound                                   system  quantity  result_value
0  O=C1NC23CC(CCOc4cncc(c4)Nc4cc(n[nH]4)[C@H]4CC[C@H](C4)O1)(C2)C3 [Compound 117]  Phospho-Rb (Ser807/811) in OVCAR3 cells     pIC50        ≥ 8.70
1  O=C1NCCCCCOc2cc(ccn2)Nc2cc([nH]n2)[C@H]2CC[C@H](C2)O1 [Compound 3]  Phospho-Rb (Ser807/811) in OVCAR3 cells     pIC50  7.30 to 8.00
2  C[C@H]1CCCOc2cncc(n2)Nc2cc(n[nH]2)C2C[C@@H](F)[C@H](C2)OC(=O)N1 [Compound 242]  Phospho-Rb (Ser807/811) in OVCAR3 cells     pIC50        ≥ 8.70
3  C[C@H]1CCO[C@H](C)c2cc(ccn2)Nc2cc(n[nH]2)[C@H]2CC[C@H](C2)OC(=O)N1 [compound 158]  Phospho-Rb (Ser807/811) in OVCAR3 cells     pIC50  7.30 to 8.00

The recorded pIC50 for C[C@@H]1CC/C=C/c2cc(ccn2)Nc2cc(n[nH]2)[C@H]2CC[C@H](C2)OC(=O)N1 [Compound 126] is 7.30 to 8.00

The recorded pIC50 for O=C1NC2(CCCOc3cc(ccn3)Nc3cc([nH]n3)[C@H]3CC[C@H](C3)O1)CC2 [Compound 33] is 7.30 to 8.00

The recorded pIC50 for C[C@H]1CCCOc2cc(ccn2)Nc2cc([nH]n2)[C@H]2CC[C@H](C2)OC(=O)N1 [Compound 9] is 7.30 to 8.00

meta.source: patent US20240317777A1
